Molecular target: PYK2 (Homo sapiens)
Construct: Purified full-length human SYK, ZAP70, PIM1, PYK2; purchased Carna Biosciences
Sequence (Q14289 whole entry): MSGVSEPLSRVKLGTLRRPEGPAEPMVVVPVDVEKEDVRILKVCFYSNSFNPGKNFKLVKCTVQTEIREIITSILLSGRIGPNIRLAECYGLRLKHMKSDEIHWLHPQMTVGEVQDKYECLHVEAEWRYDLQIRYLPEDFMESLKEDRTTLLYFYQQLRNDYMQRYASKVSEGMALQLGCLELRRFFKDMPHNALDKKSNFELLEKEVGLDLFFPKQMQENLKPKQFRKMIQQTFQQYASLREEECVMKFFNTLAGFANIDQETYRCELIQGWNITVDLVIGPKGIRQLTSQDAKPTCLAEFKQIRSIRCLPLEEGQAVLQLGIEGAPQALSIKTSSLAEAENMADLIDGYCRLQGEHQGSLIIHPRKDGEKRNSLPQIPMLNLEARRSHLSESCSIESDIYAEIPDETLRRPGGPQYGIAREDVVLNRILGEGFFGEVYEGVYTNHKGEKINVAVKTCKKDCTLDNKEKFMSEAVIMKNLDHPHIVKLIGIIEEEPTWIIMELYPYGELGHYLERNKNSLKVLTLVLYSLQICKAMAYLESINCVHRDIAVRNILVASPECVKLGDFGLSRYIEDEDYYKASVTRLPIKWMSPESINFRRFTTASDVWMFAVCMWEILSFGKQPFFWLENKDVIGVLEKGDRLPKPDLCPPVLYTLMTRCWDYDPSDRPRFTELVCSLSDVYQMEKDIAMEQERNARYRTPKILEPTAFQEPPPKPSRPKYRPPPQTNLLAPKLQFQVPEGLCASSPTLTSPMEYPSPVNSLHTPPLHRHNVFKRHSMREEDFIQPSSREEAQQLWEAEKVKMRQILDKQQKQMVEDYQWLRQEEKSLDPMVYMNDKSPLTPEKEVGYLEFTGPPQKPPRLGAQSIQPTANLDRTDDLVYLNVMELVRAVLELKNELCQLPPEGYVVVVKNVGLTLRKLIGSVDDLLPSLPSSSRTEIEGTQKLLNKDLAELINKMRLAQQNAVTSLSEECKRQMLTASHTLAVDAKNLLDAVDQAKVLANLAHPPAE
Test: Kinase inhibition assay: PYK2
Format: biochemical
Conditions: at 1 μM concentration
Decide using inhibition at 1 µM: a value greater than or equal to 80% is fulfilled, a smaller one is not fulfilled.

Ask | Decide: inhibition at 1 µM of COc1cc(Nc2ncc(F)c(-n3cc(C)c(CO)c3)n2)cc(OC)c1 >= 80%?
Reply | fulfilled

Ask | Can Cc1cc(C)cc(Nc2ncc(F)c(-n3cc(C(=O)N4CC[C@@H](O)C4)c(C)n3)n2)c1 be said to have inhibition at 1 µM at or above 80%?
Reply | not fulfilled

Ask | Please indicate if the recorded inhibition at 1 µM for Cc1cc(C)cc(Nc2ncc(F)c(-n3cc(C)c(CO)c3)n2)c1 meets or exceeds 80%.
Reply | not fulfilled

Ask | Say whether Cc1cc(C)cc(Nc2nccc(-n3cc(C)c(CN4CC[C@@H](O)C4)c3)n2)c1 shows inhibition at 1 µM of 80% or more.
Reply | not fulfilled

###

Would you kindly list inhibition at 1 µM for each of these compounds?
Target: ZAP70 (Homo sapiens, UniProt P43403)
Construct: Purified full-length human SYK, ZAP70, PIM1, PYK2; purchased Carna Biosciences
Sequence (P43403 1-619): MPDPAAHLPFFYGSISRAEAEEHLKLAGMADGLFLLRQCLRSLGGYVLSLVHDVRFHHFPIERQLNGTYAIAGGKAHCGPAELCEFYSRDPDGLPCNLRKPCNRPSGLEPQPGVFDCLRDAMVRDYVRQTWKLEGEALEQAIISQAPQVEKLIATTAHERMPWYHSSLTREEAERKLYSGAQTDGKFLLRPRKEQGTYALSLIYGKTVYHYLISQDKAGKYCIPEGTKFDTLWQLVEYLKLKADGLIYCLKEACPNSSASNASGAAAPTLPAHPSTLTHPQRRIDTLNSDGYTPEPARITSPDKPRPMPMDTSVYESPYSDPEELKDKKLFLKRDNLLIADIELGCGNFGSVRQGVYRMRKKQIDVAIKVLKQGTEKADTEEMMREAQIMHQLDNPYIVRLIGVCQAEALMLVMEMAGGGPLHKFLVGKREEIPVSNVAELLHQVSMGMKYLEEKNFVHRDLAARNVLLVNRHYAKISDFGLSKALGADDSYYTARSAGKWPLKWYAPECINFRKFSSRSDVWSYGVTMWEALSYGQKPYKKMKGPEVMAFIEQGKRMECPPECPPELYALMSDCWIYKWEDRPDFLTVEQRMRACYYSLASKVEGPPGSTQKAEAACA
Test: Kinase inhibition assay: ZAP70
Format: biochemical
Settings: at 1 μM concentration
# number only, unit % dropped from output

Ask | Identify the reported inhibition at 1 µM for the following entry. Cc1cc(C)cc(Nc2ncc(F)c(-n3cc(C)c(CO)c3)n2)c1
Reply | 41.3

Ask | Entry COc1cc(Nc2ncc(F)c(-n3cc(C)c(CO)c3)n2)cc(OC)c1 needs its inhibition at 1 µM filled in; supply it.
Reply | 31.9

Ask | Given the compound Cc1cc(C)cc(Nc2ncc(F)c(-n3cc(C(=O)N4CC[C@@H](O)C4)c(C)n3)n2)c1 , write its reported inhibition at 1 µM.
Reply | 19.3

Ask | Give inhibition at 1 µM for COc1cc(Nc2ncc(C)c(-n3cc(C)c(CO)c3)n2)cc(OC)c1OC
Reply | 54.6

###

Target: RET (Homo sapiens, UniProt P07949)
Construct: truncated human FAK, RET, FLT3, JAK2, and LRRK2
Sequence (P07949 658-1114 limits assumed): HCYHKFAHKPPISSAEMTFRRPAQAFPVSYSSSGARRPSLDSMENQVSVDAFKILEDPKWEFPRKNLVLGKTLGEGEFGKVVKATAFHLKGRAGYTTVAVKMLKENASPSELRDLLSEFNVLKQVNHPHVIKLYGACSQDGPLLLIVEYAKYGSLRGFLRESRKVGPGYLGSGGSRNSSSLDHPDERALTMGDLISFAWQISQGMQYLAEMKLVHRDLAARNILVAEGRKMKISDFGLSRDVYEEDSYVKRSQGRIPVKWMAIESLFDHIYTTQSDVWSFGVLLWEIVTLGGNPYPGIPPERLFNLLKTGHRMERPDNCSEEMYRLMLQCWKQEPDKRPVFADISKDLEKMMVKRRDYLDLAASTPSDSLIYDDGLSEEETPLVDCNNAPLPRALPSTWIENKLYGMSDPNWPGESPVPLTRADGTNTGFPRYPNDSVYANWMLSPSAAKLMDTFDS
Test: Kinase inhibition assay: RET
Structures can show the parent of a compound that is named as a salt.
Please assign label 0 whenever IC50 is at or above 40 nM, and label 1 whenever it is below.

Ask | State whether 40 nM exceeds IC50 recorded for COc1cc(Nc2ncc(C)c(-n3cc(C)c(CN4CC(O)C4)c3)n2)cc(OC)c1OC .
Reply | label 1

Ask | Quick check: IC50 of COc1cc(Nc2ncc(C)c(-n3cc(C)c(CO)c3)n2)cc(OC)c1OC under 40 nM?
Reply | label 0

Ask | Lab log: compare recorded IC50 with 40 nM; is it strictly lower for COc1cc(Nc2ncc(C)c(-n3cc(C)c(CN4CCCN(C(=O)C(C)(C)C)CC4)c3)n2)cc(OC)c1OC ?
Reply | label 1

Ask | Item COc1cc(Nc2ncc(C)c(-n3cc(C)c(CN4CCCNCC4)c3)n2)cc(OC)c1OC [Compound 96, trihydrochloride] : IC50 beneath 40 nM, strictly?
Reply | label 1

###

System: TNF-α release in THP-1 cells
Assay: SYK dependent TNF-α release assay (IgG stimulation)
Type: cell-based, human
Settings: Homo sapiens; THP-1 cells, IgG stimulation, 0.3 μM, 18-hour incubation
Observed Property: inhibition at 0.3 µM (%)
Supply the numeric figure in %, leaving out any unit text.

Ask | Send back TNF-α release in THP-1 cells inhibition at 0.3 µM of Cc1cc(C)cc(Nc2ncc(F)c(-n3cc(CN(C)C)c(C)n3)n2)c1 only.
Reply | 35.3

Ask | Send back TNF-α release in THP-1 cells inhibition at 0.3 µM of Cc1cc(C)cc(Nc2ncc(F)c(-n3ccc(CN4CC[C@@H](O)C4)c3)n2)c1 only.
Reply | 86.3

Ask | Find the measured inhibition at 0.3 µM of Cc1cc(C)cc(Nc2ncc(F)c(-n3ccc(CN(C)C)c3)n2)c1 with TNF-α release in THP-1 cells as test system.
Reply | 85.9

Ask | # assay system TNF-α release in THP-1 cells: give inhibition at 0.3 µM of Cc1cc(C)cc(Nc2ncc(F)c(-n3cc(C)c(CN4CC[C@@H](O)C4)c3)n2)c1
Reply | 49.2

Ask | # return inhibition at 0.3 µM for Cc1cc(C)cc(Nc2ncc(F)c(-n3cc(C)c(CN(C)C)c3)n2)c1 , test system: TNF-α release in THP-1 cells
Reply | 51.5
